method.notes: shake flask on a mixture of 185; loss from the water phase only; LC-QTOF peak areas
details: room
Would you please tag the item T when its log partition cyclohexane / HPLC water, unbuffered, traces of methanol / DMSO is 0.5 log10 or above, and F when it is below?

Observe how each entry below is paired with its result.
>>> cat("Cc1ccc([N+](=O)[O-])cc1S(=O)(=O)O")
"T"
>>> cat("CCc1nn(C)c(C(=O)NCc2ccc(C(C)(C)C)cc2)c1Cl")
"T"
>>> cat("O=S(=O)(O)C(F)(F)F")
"F"
>>> cat("Oc1c(Cl)cc(Cl)cc1Sc1cc(Cl)cc(Cl)c1O")
"T"
>>> cat("CC(C)C1(C)N=C(c2nc3ccccc3cc2C(=O)O)NC1=O (stereo not drawn)")
"F"

Please tell me: is the compound Cn1cnc([N+](=O)[O-])c1Sc1ncnc2nc[nH]c12 at or over 0.5 log10 in terms of log partition cyclohexane / HPLC water, unbuffered, traces of methanol / DMSO?
F
